Hey, just so you know, these numbers are from ChEMBL document CHEMBL1154775.

Molecular target: UniProt:P35372
Sequence (P35372 whole entry): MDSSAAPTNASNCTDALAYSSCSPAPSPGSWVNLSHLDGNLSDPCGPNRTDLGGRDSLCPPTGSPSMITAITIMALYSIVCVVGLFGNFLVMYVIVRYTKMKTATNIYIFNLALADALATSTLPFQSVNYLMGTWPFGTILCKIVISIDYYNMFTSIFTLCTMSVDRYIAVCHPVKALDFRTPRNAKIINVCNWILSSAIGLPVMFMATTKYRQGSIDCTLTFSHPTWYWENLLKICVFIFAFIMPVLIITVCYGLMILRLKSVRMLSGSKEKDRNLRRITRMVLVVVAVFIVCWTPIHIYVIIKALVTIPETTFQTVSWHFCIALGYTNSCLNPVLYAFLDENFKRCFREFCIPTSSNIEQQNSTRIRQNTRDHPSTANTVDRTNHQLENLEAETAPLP
Assay: Displacement of [3H]DAMGO from mu opioid receptor expressed in CHO cells after 90 mins by scintillation counting
pIC50: −log10 of the molar value. Numbered stars: 1 amine (or outer) side, 2 acyl side, 3 side chain; on linkers, the order of the positions; unused ones are H or OH. Square brackets hold non-standard residues; d marks the D form. Peptide text beside a SMILES is read from it. X6 = O=C(CBr)N(CCCC[C@@H](N[*:1])C(=O)[*:2])C(=O)CBr; X1 = O=C(CBr)N(CCC[C@@H](N[*:1])C(=O)[*:2])C(=O)CBr; X7 = CC(=O)N(CCCC[C@@H](N[*:1])C(=O)[*:2])C(C)=O; X8 = CC(=O)N(CCC[C@@H](N[*:1])C(=O)[*:2])C(C)=O; X5 = O=C([C@@H](CCCCN(N=C=S)N=C=S)N[*:1])[*:2]; X4 = O=C([C@@H](CCCN(N=C=S)N=C=S)N[*:1])[*:2]
# maps each entry to its pIC50
measurementKind: pIC50

[[record]]
compound = "N[C@@H](Cc1ccc(O)cc1)C(=O)N[C@H](CCCCN(N=C=S)N=C=S)C(=O)N[C@@H](Cc1ccccc1)C(=O)NCC(=O)N[C@@H](Cc1ccc(O)cc1)C(=O)N1CCC[C@H]1C(=O)N[C@@H](CO)C(=O)O (H-Y[X5]FGYPS-OH)"
studytarget = "UniProt:P35372"
assayvalue = 9.42

[[record]]
compound = "CC(=O)N(CCCC[C@@H](NC(=O)[C@@H](N)Cc1ccc(O)cc1)C(=O)N[C@@H](Cc1ccccc1)C(=O)NCC(=O)N[C@@H](Cc1ccc(O)cc1)C(=O)N1CCC[C@H]1C(=O)N[C@@H](CO)C(=O)O)C(C)=O (H-Y[X7]FGYPS-OH)"
studytarget = "UniProt:P35372"
assayvalue = 7.53

[[record]]
compound = "N[C@@H](Cc1ccc(O)cc1)C(=O)N[C@H](CCCN(N=C=S)N=C=S)C(=O)N[C@@H](Cc1ccccc1)C(=O)NCC(=O)N[C@@H](Cc1ccc(O)cc1)C(=O)N1CCC[C@H]1C(=O)N[C@@H](CO)C(=O)O (H-Y[X4]FGYPS-OH)"
studytarget = "UniProt:P35372"
assayvalue = 9.09

[[record]]
compound = "N[C@@H](Cc1ccc(O)cc1)C(=O)N[C@H](CCCN(C(=O)CBr)C(=O)CBr)C(=O)N[C@@H](Cc1ccccc1)C(=O)NCC(=O)N[C@@H](Cc1ccc(O)cc1)C(=O)N1CCC[C@H]1C(=O)N[C@@H](CO)C(=O)O (H-Y[X1]FGYPS-OH)"
studytarget = "UniProt:P35372"
assayvalue = 9.96

[[record]]
compound = "N[C@@H](Cc1ccc(O)cc1)C(=O)N[C@H](CCCCN(C(=O)CBr)C(=O)CBr)C(=O)N[C@@H](Cc1ccccc1)C(=O)NCC(=O)N[C@@H](Cc1ccc(O)cc1)C(=O)N1CCC[C@H]1C(=O)N[C@@H](CO)C(=O)O (H-Y[X6]FGYPS-OH)"
studytarget = "UniProt:P35372"
assayvalue = 8.28

[[record]]
compound = "CC(=O)N(CCC[C@@H](NC(=O)[C@@H](N)Cc1ccc(O)cc1)C(=O)N[C@@H](Cc1ccccc1)C(=O)NCC(=O)N[C@@H](Cc1ccc(O)cc1)C(=O)N1CCC[C@H]1C(=O)N[C@@H](CO)C(=O)O)C(C)=O (H-Y[X8]FGYPS-OH)"
studytarget = "UniProt:P35372"
assayvalue = 8.37


====

# maps each entry to its Ratio IC50
Assay: Selectivity ratio of IC50 for delta opioid receptor to IC50 for mu opioid receptor
Numbered stars: 1 amine (or outer) side, 2 acyl side, 3 side chain; on linkers, the order of the positions; unused ones are H or OH. Square brackets hold non-standard residues; d marks the D form. Peptide text beside a SMILES is read from it. X6 = O=C(CBr)N(CCCC[C@@H](N[*:1])C(=O)[*:2])C(=O)CBr; X1 = O=C(CBr)N(CCC[C@@H](N[*:1])C(=O)[*:2])C(=O)CBr; X7 = CC(=O)N(CCCC[C@@H](N[*:1])C(=O)[*:2])C(C)=O; X8 = CC(=O)N(CCC[C@@H](N[*:1])C(=O)[*:2])C(C)=O; X5 = O=C([C@@H](CCCCN(N=C=S)N=C=S)N[*:1])[*:2]; X4 = O=C([C@@H](CCCN(N=C=S)N=C=S)N[*:1])[*:2]
measurementKind: Ratio IC50

[[record]]
compound = "N[C@@H](Cc1ccc(O)cc1)C(=O)N[C@H](CCCN(N=C=S)N=C=S)C(=O)N[C@@H](Cc1ccccc1)C(=O)NCC(=O)N[C@@H](Cc1ccc(O)cc1)C(=O)N1CCC[C@H]1C(=O)N[C@@H](CO)C(=O)O (H-Y[X4]FGYPS-OH)"
measurementkind = "Ratio IC50"
assayvalue = 29

[[record]]
compound = "CC(=O)N(CCC[C@@H](NC(=O)[C@@H](N)Cc1ccc(O)cc1)C(=O)N[C@@H](Cc1ccccc1)C(=O)NCC(=O)N[C@@H](Cc1ccc(O)cc1)C(=O)N1CCC[C@H]1C(=O)N[C@@H](CO)C(=O)O)C(C)=O (H-Y[X8]FGYPS-OH)"
measurementkind = "Ratio IC50"
assayvalue = 64

[[record]]
compound = "CC(=O)N(CCCC[C@@H](NC(=O)[C@@H](N)Cc1ccc(O)cc1)C(=O)N[C@@H](Cc1ccccc1)C(=O)NCC(=O)N[C@@H](Cc1ccc(O)cc1)C(=O)N1CCC[C@H]1C(=O)N[C@@H](CO)C(=O)O)C(C)=O (H-Y[X7]FGYPS-OH)"
measurementkind = "Ratio IC50"
assayvalue = 15

[[record]]
compound = "N[C@@H](Cc1ccc(O)cc1)C(=O)N[C@H](CCCCN(N=C=S)N=C=S)C(=O)N[C@@H](Cc1ccccc1)C(=O)NCC(=O)N[C@@H](Cc1ccc(O)cc1)C(=O)N1CCC[C@H]1C(=O)N[C@@H](CO)C(=O)O (H-Y[X5]FGYPS-OH)"
measurementkind = "Ratio IC50"
assayvalue = 255

[[record]]
compound = "N[C@@H](Cc1ccc(O)cc1)C(=O)N[C@H](CCCN(C(=O)CBr)C(=O)CBr)C(=O)N[C@@H](Cc1ccccc1)C(=O)NCC(=O)N[C@@H](Cc1ccc(O)cc1)C(=O)N1CCC[C@H]1C(=O)N[C@@H](CO)C(=O)O (H-Y[X1]FGYPS-OH)"
measurementkind = "Ratio IC50"
assayvalue = 3110

[[record]]
compound = "N[C@@H](Cc1ccc(O)cc1)C(=O)N[C@H](CCCCN(C(=O)CBr)C(=O)CBr)C(=O)N[C@@H](Cc1ccccc1)C(=O)NCC(=O)N[C@@H](Cc1ccc(O)cc1)C(=O)N1CCC[C@H]1C(=O)N[C@@H](CO)C(=O)O (H-Y[X6]FGYPS-OH)"
measurementkind = "Ratio IC50"
assayvalue = 73

